test_protocol: Intrinsic clearance in human liver microsomes at 1 uM after 15 to 30 mins in presence of NADPH by LC/MS/MS analysis
Format: ADME, microsome
condition_set: read-out: CLH
reported_property: microsomal CLint at 1 µM

CCOc1cc(CN2CC3(CC(N4CCC(C(=O)O)CC4)=NO3)C2)cc(OCC)c1-c1ccc(F)cc1	< 10 µL/min/mg

---

test_protocol: Tmax in ICR mouse at 1 mg/kg, po administered as cassette dose by LC/MS/MS analysis
Type: ADME, organism-based
condition_set: in vivo
reported_property: Tmax (h)

CCOc1cc(CN2CC3(CC(N4CCC(C(=O)O)CC4)=NO3)C2)cc(OCC)c1-c1ccc(F)cc1	2

---

test_protocol: Cmax in ICR mouse at 1 mg/kg, po administered as cassette dose by LC/MS/MS analysis
Assay type: ADME, organism-based
Parameters: dose 1 mg/kg, route oral
condition_set: in vivo
reported_property: Cmax (ng/mL)

CCOc1cc(CN2CC3(CC(N4CCC(C(=O)O)CC4)=NO3)C2)cc(OCC)c1-c1ccc(F)cc1	74.8

---

study_target: UniProt O08858
Sequence (O08858 whole entry): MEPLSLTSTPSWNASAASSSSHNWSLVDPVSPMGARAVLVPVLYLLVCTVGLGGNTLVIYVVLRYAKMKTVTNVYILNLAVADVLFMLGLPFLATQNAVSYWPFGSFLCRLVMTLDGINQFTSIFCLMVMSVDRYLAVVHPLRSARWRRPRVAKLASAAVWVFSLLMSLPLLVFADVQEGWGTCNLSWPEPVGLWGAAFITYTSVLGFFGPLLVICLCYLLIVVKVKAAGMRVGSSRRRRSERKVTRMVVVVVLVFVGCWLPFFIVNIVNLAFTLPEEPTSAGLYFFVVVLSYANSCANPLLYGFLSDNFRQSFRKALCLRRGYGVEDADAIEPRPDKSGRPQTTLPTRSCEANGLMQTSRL
test_protocol: Antagonist activity at mouse SSTR5 expressed in CHO cells assessed as inhibition of SST14-induced forskolin-stimulated intracellular cAMP level incubated for 15 mins followed by forskolin stimulation for 30 mins by HTRF assay
Each entry below carries its reported IC50.
reported_property: IC50 (nM)

CCOc1cc(CN2CC3(CC(c4ccc(CO)cc4)=NO3)C2)cc(OCC)c1-c1ccc(F)cc1	430
CCOc1cc(CN2CC3(CC(c4ccc(C(N)=O)cc4)=NO3)C2)cc(OCC)c1-c1ccc(F)cc1	150
CCOc1cc(CN2CC3(CC([C@H]4CC[C@H](C(=O)O)CC4)=NO3)C2)cc(OCC)c1-c1ccc(F)cc1	38

---

Each entry below carries its reported pIC50.
study_target: Somatostatin receptor type 5 (Homo sapiens, UniProt P35346)
Sequence (P35346 whole entry): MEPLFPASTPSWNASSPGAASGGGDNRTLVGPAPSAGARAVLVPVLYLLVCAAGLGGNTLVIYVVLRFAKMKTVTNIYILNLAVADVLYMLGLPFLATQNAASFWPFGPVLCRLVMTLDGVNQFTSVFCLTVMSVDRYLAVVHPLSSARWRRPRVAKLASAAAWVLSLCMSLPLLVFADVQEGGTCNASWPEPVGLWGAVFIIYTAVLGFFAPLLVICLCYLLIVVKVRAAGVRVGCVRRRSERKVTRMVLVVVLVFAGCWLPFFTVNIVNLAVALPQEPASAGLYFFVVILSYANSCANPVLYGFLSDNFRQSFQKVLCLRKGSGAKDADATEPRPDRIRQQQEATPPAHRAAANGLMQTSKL
test_protocol: Antagonist activity at human SSTR5 expressed in CHO cells assessed as inhibition of SST14-induced forskolin-stimulated intracellular cAMP level incubated for 15 mins followed by forskolin stimulation for 30 mins by HTRF assay
pIC50: −log10 of the molar value.
reported_property: pIC50

CCOc1cc(CN2CC3(CC(c4ccccc4C(=O)O)=NO3)C2)cc(OCC)c1-c1ccc(F)cc1	< 5.00
CCOc1cc(C(=O)N2CC3(CC(c4ccc(C(=O)O)cc4)=NO3)C2)cc(OCC)c1-c1ccc(F)cc1	< 5.00
CCOc1cc(CN2CC3(CC(c4ccc(CO)cc4)=NO3)C2)cc(OCC)c1-c1ccc(F)cc1	6.00
